The origin of these recorded values is ChEMBL document CHEMBL1149631.

- assay notes: Displacement of [3H]clonidine from alpha-2-adrenoceptor in cerebral cortex of rat brain
- Type: tissue-based
measured property: Ki

The reported Ki of the compound `Cc1nccc2c1[nH]c1ccccc12` was > 12 µM

---

- assay notes: Displacement of [3H]idazoxan from I2-imidazoline binding site in rabbit kidney membrane
- Format: cell membranes, Oryctolagus cuniculus
measured property: pKi
# pKi is unitless: minus log10 of the molar concentration; print number only

The reported pKi of the molecule Cc1nccc2c1[nH]c1ccccc12 [HARMAN] was 7.27

---

- assay notes: Displacement of [3H]clonidine from I1-imidazoline binding site in bovine adrenal medulla plasma membrane
- Type: tissue-based, Bos taurus
measured property: pKi
# pKi is unitless: minus log10 of the molar concentration; print number only

The reported pKi of the compound `Cc1nccc2c1[nH]c1ccccc12` was 7.44
